Entry source: ChEMBL document CHEMBL1141106

Here the recorded EC50 is given for each entry.
target.or.system: Metabotropic glutamate receptor 2 (Rattus norvegicus)
Sequence (P31421 whole entry): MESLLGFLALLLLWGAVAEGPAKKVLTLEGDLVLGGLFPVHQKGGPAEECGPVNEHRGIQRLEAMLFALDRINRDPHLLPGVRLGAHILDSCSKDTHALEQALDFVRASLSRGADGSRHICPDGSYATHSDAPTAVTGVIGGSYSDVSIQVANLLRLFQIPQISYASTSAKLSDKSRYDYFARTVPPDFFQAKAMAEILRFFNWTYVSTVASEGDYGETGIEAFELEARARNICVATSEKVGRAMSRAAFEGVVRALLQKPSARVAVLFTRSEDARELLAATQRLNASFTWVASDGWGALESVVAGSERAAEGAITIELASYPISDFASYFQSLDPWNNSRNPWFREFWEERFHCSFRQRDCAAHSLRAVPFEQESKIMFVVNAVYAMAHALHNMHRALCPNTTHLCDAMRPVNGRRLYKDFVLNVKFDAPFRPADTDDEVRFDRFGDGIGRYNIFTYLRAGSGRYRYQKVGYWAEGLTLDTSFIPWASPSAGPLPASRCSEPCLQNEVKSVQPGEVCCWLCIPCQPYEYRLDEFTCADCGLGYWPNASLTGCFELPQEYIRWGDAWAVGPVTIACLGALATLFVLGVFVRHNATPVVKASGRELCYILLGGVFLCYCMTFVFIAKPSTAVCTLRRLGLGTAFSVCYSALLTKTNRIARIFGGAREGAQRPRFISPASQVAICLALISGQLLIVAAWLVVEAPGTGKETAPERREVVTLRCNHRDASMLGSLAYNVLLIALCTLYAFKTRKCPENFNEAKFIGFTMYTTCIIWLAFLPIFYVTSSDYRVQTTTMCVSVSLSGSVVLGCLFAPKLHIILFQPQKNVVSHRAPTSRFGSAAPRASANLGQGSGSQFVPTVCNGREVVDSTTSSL
test.method.notes: Effective concentration against mGluR2 receptor expressed in CHO cells
Format: cell-based

| molecule | operator | EC50 [µM] |
| --- | --- | --- |
| N[C@]1(C(=O)O)C[C@@H]2C(C(=O)O)=NO[C@@H]2C1 | = | 9.1 |
| N[C@@]1(C(=O)O)C[C@@H]2C(C(=O)O)=NO[C@@H]2C1 | > | 1000 |
| N[C@]1(C(=O)O)C[C@@H]2ON=C(C(=O)O)[C@@H]2C1 | > | 1000 |
| NC1(C(=O)O)CC2ON=C(C(=O)O)C2C1 (racemic; form 2) | = | 16 |
| NC(CC1CC(C(=O)O)=NO1)C(=O)O (racemic; form 1) | > | 1000 |

====

target.or.system: UniProtKB P31423
Sequence (P31423 whole entry): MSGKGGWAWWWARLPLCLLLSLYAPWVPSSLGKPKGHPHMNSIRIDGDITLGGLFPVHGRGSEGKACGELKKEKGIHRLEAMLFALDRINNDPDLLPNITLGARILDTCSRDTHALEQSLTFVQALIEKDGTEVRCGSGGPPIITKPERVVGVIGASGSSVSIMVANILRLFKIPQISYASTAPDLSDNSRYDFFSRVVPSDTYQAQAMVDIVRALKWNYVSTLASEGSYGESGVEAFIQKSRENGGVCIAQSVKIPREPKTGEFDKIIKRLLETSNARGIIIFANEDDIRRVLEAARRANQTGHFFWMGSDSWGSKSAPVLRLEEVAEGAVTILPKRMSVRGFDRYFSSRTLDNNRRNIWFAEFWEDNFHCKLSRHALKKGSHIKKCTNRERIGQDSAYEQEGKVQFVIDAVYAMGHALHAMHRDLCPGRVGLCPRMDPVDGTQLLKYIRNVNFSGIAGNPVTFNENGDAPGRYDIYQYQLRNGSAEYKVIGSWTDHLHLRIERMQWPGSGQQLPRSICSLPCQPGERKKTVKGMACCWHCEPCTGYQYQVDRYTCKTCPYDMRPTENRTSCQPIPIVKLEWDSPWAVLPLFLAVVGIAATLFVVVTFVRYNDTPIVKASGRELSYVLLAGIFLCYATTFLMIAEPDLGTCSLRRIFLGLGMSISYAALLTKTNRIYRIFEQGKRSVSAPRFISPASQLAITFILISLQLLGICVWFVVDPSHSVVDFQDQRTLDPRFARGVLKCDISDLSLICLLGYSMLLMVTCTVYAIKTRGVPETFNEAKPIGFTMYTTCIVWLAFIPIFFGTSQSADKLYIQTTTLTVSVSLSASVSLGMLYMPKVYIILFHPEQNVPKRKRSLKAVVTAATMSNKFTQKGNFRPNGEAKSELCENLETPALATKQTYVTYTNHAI
test.method.notes: Binding affinity for mGluR4 receptor expressed in CHO cells
Assay type: cell-based
pKi: −log10 of the molar value.

| molecule | pKi |
| --- | --- |
| NC1(C(=O)O)CC2ON=C(C(=O)O)C2C1 (racemic; form 1) | < 3.00 |
| N[C@@]1(C(=O)O)C[C@@H]2C(C(=O)O)=NO[C@@H]2C1 | < 3.00 |
| N[C@]1(C(=O)O)C[C@@H]2C(C(=O)O)=NO[C@@H]2C1 | < 3.00 |
| NC(CC1CC(C(=O)O)=NO1)C(=O)O (racemic; form 1) | < 3.00 |

====

target.or.system: UniProt P31423
test.method.notes: Effective concentration against mGluR4 receptor expressed in CHO cells
Assay type: cell-based
settings: cho
experimental.endpoint: EC50

| compound | target.or.system | reading |
| --- | --- | --- |
| NC1(C(=O)O)CC2ON=C(C(=O)O)C2C1 (racemic; form 2) | UniProt P31423 | > 1000 µM |
